- system: SARS-CoV-2 M^pro (Severe acute respiratory syndrome coronavirus 2)
- protocolNotes: biochemical
- conditionContext: IC50 (μM) at S/KM 1
With a cut-off of 2 µM, any IC50 strictly below it is called met; any IC50 meeting it or above is called not met.

O=C1NC(=O)C(=Cc2ccc(-c3cccc(C(F)(F)F)c3)o2)C(=O)N1 :: met
COc1ccc(-n2c(CNC(=O)COc3ccc(Cl)cc3Cl)n[nH]c2=S)cc1 :: met
O=c1sc2ccccc2n1Cc1n[nH]c(=S)n1-c1ccccc1 :: not met

Prompt line: Bench note: check whether CCOc1cc(C(=O)NCc2n[nH]c(=S)n2-c2ccc(Br)cc2)cc(OCC)c1OCC shows IC50 below 2 µM
Response line: met

Prompt line: Bench note: check whether COc1ccc(-n2c(S)nnc2CNC(=O)c2cc(OC)c(OC)c(OC)c2)cc1 shows IC50 below 2 µM
Response line: not met

====

Reported pIC50 values for a set of compounds
- system: SARS-CoV-2 M^pro (Severe acute respiratory syndrome coronavirus 2, UniProt P0DTD1)
- protocolNotes: biochemical
- conditionContext: Table S3, representative dual inhibitors; read-out: IC50 for M^pro
// pIC50: -log10(molar conc.)

O=c1sc2ccccc2n1Cc1n[nH]c(=S)n1-c1ccccc1 :: 5.06
CCOc1cc(C(=O)NCc2n[nH]c(=S)n2-c2ccc(Br)cc2)cc(OCC)c1OCC :: 5.01
COc1ccc(-n2c(CNC(=O)COc3ccc(Cl)cc3Cl)n[nH]c2=S)cc1 :: 4.66
COc1ccc(-n2c(S)nnc2CNC(=O)c2cc(OC)c(OC)c(OC)c2)cc1 :: 4.37

Turning now to a further compound:
The compound O=C(COc1ccc(Cl)cc1)NCc1n[nH]c(=S)n1-c1ccc(Br)cc1 showed pIC50 equal to 5.38

====

- System: Vero cells
- conditionContext: Table S1, M^pro inhibitors; same inhibitor concentration (10 µg/mL)
Reported Cytotoxicity activity (%) values for a set of compounds
Answer format reminder: number followed by unit.

O=C(Oc1cncc(Cl)c1)c1sccc1Cl [WNN2048-F004] :: 6.16%
O=C1NC(=O)N(Cc2ccccc2)C(=O)C1=Cc1ccco1 [WNN3797-H008] :: -7.75%
O=C1NC(=O)C(=Cc2ccc(-c3cccc(Cl)c3Cl)o2)C(=O)N1 [WNN3989-H007] :: -4.89%

The compound O=C1NC(=O)C(=Cc2ccc(-c3cccc(Cl)c3)o2)C(=O)N1 [RUS0245-E010] showed Cytotoxicity activity (%) equal to -8.14%

The compound O=C1NC(=O)C(=Cc2ccc(-c3cccc(C(F)(F)F)c3)o2)C(=O)N1 [WNN3953-B007] showed Cytotoxicity activity (%) equal to 13.01%

The compound COc1ccc(CN2C(=O)NC(=O)/C(=C\c3ccco3)C2=O)cc1 [CDE0972-G011] showed Cytotoxicity activity (%) equal to -7.84%

The compound Cc1ccc(NCc2n[nH]c(=S)n2-c2ccccc2)cc1 [WNN2867-E005] showed Cytotoxicity activity (%) equal to -6.94%

====

- system: SARS-CoV-2 M^pro (Severe acute respiratory syndrome coronavirus 2, UniProt P0DTD1)
- protocolNotes: biochemical
- conditionContext: IC50 (μM) at S/KM 1
Reported IC50 values for a set of compounds
Numbers only; they are read as µM.

Look over these answered cases.
O=C(NCc1n[nH]c(=S)n1-c1ccc(Br)cc1)c1ccc(Cl)cc1Cl :: 4.37
O=C1NC(=O)C(=Cc2ccc(-c3cccc(Cl)c3)o2)C(=O)N1 :: 0.25

Turning now to a further compound:
# lookup: O=C(Oc1cncc(Cl)c1)c1sccc1Cl on SARS-CoV-2 M^pro (Severe acute respiratory syndrome coronavirus 2, UniProt P0DTD1), IC50 = 0.35
